Biological target: CatB (Homo sapiens, UniProt P07858)
Experiment: CatB single point enzyme activity assay (residual activity)
Conditions: read-out: RA
value_type: remaining activity at 100 µM (%)

{"compound": "O=C1C=CC(=O)N1c1ccccc1", "assay_result": 82}
{"compound": "COC(=O)/C=C/C(=O)OC", "assay_result": 106}
{"compound": "COc1cc(NC(=O)CCl)cc(OC)c1", "assay_result": 87}
{"compound": "O=C(CBr)c1ccc(-c2ccccc2)cc1 [Compound 44, O=C(CBr)c1ccc(-c2ccccc2)cc1]", "assay_result": 0.1}

###

# RA annotations
Molecular target: Recombinant human microsomal MAO-A (Homo sapiens, UniProt P21397)
Construct: purchased Sigma Aldrich; host or cells: baculovirus infected insect cells (BTI-TN-5B1-4)
Sequence (P21397 whole entry): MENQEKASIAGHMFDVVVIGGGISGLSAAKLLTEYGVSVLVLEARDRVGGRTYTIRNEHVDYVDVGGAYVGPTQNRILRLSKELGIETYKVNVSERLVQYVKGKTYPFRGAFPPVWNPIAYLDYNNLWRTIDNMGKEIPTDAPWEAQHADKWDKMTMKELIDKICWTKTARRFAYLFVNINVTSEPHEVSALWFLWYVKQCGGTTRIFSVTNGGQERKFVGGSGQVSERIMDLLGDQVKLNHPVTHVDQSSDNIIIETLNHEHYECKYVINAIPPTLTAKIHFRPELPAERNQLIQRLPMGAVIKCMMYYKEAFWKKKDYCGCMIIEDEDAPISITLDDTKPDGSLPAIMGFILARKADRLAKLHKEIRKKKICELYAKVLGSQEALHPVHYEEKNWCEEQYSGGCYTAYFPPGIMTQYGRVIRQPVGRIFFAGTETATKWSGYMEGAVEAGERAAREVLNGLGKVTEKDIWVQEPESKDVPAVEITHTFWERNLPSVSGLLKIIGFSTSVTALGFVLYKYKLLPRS
Assay: MAO-A activity assay (fluorimetric, Amplex Red, p-tyramine)
Format: biochemical
Settings: MAO-A residual activity; active if lower than 60%

{"molecule": "CCOC(=O)/C=C/c1ccccc1 [Compound 27, CCOC(=O)/C=C/c1ccccc1]", "target_system": "Recombinant human microsomal MAO-A (Homo sapiens, UniProt P21397)", "RA (%)": 97}
{"molecule": "O=C1C=CC(=O)N1c1ccccc1 [Compound 41, O=C1C=CC(=O)N1c1ccccc1]", "target_system": "Recombinant human microsomal MAO-A (Homo sapiens, UniProt P21397)", "RA (%)": 1}
{"molecule": "C=CS(=O)(=O)c1ccccc1 [Compound 34, C=CS(=O)(=O)c1ccccc1]", "target_system": "Recombinant human microsomal MAO-A (Homo sapiens, UniProt P21397)", "RA (%)": 52}
{"molecule": "CCOC(=O)C#Cc1ccccc1 [Compound 36, CCOC(=O)C#Cc1ccccc1]", "target_system": "Recombinant human microsomal MAO-A (Homo sapiens, UniProt P21397)", "RA (%)": 94}
{"molecule": "O=C1C=CC(=O)N1Cc1ccccc1 [Compound 39, O=C1C=CC(=O)N1Cc1ccccc1]", "target_system": "Recombinant human microsomal MAO-A (Homo sapiens, UniProt P21397)", "RA (%)": 0}
{"molecule": "C=CC(=O)N(C)C [Compound 29, C=CC(=O)N(C)C]", "target_system": "Recombinant human microsomal MAO-A (Homo sapiens, UniProt P21397)", "RA (%)": 75}
{"molecule": "COc1ccccc1C(=O)CBr [Compound 46, COc1ccccc1C(=O)CBr]", "target_system": "Recombinant human microsomal MAO-A (Homo sapiens, UniProt P21397)", "RA (%)": 39}
{"molecule": "O=C(CCl)Nc1ccccc1 [Compound 48, O=C(CCl)Nc1ccccc1]", "target_system": "Recombinant human microsomal MAO-A (Homo sapiens, UniProt P21397)", "RA (%)": 95}
{"molecule": "O=C1C=CC(=O)N1C1CCCCC1 [Compound 40, O=C1C=CC(=O)N1C1CCCCC1]", "target_system": "Recombinant human microsomal MAO-A (Homo sapiens, UniProt P21397)", "RA (%)": 3}
